Listing of recorded EC50 by entry.
- TARGET UNDER TEST: ΔF508-CFTR (Homo sapiens, UniProt P13569, DEL508-508)
- Construct: host or cells: CFBE41o-, doxycycline-inducible
- Sequence (P13569 with tags, fused parts or gaps DEL508-508): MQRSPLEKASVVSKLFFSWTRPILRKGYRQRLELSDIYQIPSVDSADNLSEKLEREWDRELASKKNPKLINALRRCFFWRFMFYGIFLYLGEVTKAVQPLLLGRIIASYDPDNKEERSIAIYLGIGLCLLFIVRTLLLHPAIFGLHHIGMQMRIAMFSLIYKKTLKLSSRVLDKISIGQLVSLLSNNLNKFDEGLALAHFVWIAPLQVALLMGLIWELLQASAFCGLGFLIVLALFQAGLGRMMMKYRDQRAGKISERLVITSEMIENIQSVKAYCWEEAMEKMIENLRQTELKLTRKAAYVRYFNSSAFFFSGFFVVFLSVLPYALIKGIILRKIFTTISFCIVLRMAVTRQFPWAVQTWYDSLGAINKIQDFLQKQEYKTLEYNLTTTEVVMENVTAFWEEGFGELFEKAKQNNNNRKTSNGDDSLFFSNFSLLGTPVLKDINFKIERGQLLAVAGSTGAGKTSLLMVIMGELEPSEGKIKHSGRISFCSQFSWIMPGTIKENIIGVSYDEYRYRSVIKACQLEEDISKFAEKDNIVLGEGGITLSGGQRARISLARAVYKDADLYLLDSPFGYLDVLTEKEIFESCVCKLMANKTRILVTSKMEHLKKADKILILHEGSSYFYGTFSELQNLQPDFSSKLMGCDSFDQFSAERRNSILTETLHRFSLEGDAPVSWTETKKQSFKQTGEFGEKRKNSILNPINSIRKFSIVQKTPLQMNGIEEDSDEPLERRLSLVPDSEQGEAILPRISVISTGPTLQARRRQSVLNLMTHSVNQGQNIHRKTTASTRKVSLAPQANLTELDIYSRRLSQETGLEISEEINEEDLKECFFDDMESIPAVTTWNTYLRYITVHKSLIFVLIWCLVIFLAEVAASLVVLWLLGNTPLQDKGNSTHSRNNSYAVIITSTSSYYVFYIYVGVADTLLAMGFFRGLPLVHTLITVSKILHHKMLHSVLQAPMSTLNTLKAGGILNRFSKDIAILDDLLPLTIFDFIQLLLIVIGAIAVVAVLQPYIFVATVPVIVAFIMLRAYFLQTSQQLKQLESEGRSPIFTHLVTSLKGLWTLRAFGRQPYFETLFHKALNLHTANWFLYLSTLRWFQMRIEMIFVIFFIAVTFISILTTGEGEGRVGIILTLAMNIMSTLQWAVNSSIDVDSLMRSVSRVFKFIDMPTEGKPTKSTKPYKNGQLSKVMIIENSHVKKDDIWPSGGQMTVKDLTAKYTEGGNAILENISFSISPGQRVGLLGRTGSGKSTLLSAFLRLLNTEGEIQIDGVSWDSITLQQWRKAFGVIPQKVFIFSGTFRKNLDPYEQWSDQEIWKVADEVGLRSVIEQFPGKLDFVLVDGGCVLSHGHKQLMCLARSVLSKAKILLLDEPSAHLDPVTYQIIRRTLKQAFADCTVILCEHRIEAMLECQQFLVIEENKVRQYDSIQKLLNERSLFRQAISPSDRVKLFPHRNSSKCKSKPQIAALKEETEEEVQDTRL
- METHOD NOTES: CFTR cell surface levels using HRP-tagged ΔF508-CFTR expressing CFBE cells, intrinsic corrector capacity
- Assay type: cell-based
- EXPERIMENTAL CONDITIONS: HRP-tagged ΔF508-CFTR expressing CFBE41o- cells; compound alone (intrinsic corrector capacity); 20 hours at 33° C.; read-out: EC50
Lab book: enter the figure in nM, no units written.

Previously resolved entries follow.
{"MOLECULE": "Cc1nn(-c2ccccc2)c2nc(C(=O)NS(C)(=O)=O)cc(N3CCCCC3)c12", "TARGET UNDER TEST": "ΔF508-CFTR (Homo sapiens, UniProt P13569, DEL508-508)", "READOUT NAME": "EC50", "MEASUREMENT UNIT": "nM", "MEASURED NUMBER": 2360}
{"MOLECULE": "COC1(CN2CCS(=O)(=O)CC2)CCN(c2cc(C(=O)NS(C)(=O)=O)nc3c2c(C2CCC2)nn3-c2ccccc2)CC1", "TARGET UNDER TEST": "ΔF508-CFTR (Homo sapiens, UniProt P13569, DEL508-508)", "READOUT NAME": "EC50", "MEASUREMENT UNIT": "nM", "MEASURED NUMBER": 1880}
{"MOLECULE": "CN(C)S(=O)(=O)NC(=O)c1cc(N2CCC3(CC2)CCN(C2CC2)CC3)c2c(C3CCC3)nn(-c3ccc(F)cc3)c2n1", "TARGET UNDER TEST": "ΔF508-CFTR (Homo sapiens, UniProt P13569, DEL508-508)", "READOUT NAME": "EC50", "MEASUREMENT UNIT": "nM", "MEASURED NUMBER": 177}

// lookup EC50 | system=ΔF508-CFTR (Homo sapiens, UniProt P13569, DEL508-508) | key= "O=C(NS(=O)(=O)C1CC1)c1cc(N2CCC(CN3CCCC3)CC2)c2c(C3CCC3)nn(-c3ccccc3)c2n1"
776

Try the molecule "CS(=O)(=O)NC(=O)c1cc(OCC2CCOCC2)c2c(C3CCC3)nn(-c3ccc(F)cc3)c2n1"
411

Try the molecule "COC1CCN(c2cc(C(=O)NS(C)(=O)=O)nc3c2c(C(C)C)nn3-c2ccc(F)cc2)CC1"
313

Try the molecule "CNS(=O)(=O)NC(=O)c1cc(N2CCN(C(=O)OCC(C)C)CC2)c2c(C3CCC3)nn(-c3ccc(F)cc3)c2n1"
115
